This section lists Ki readings for HDAC1/REST corepressor 3 (Homo sapiens, UniProt Q13547+Q9P2K3).
Number only, in nM; omit the unit.

Cl.Cl.Cl.N[C@@H]1C[C@H]1c1ccc(NC(=O)CCC(=O)NCCCNCCCCNCCCNC(=O)c2ccc(NC(=O)CCCCCCC(=O)NO)cc2)cc1 :: 42.5

// switching to the query compound
What value of Ki has been recorded for this entry: Cl.Cl.N[C@@H]1C[C@H]1c1ccc(NC(=O)CCC(=O)NCCCNCCCNC(=O)c2ccc(NC(=O)CCCCCCC(=O)NO)cc2)cc1
26.9

====

test system: MCF7; assay: cells; type: functional, cell-based; conditions: Homo sapiens, MCF7, 24 h
Description: Cytotoxic activity against human MCF7 cells after 24 hrs by MTT assay
PROPERTY_NAME: IC50 (µM)
Number only, in µM; omit the unit.

Cl.Cl.Cl.N[C@@H]1C[C@H]1c1ccc(NC(=O)CCC(=O)NCCCNCCCCNCCCNC(=O)c2ccc(NC(=O)CCCCCCC(=O)NO)cc2)cc1 :: 39.6

// switching to the query compound
What value of IC50 has been recorded for this entry: Cl.Cl.N[C@@H]1C[C@H]1c1ccc(NC(=O)CCC(=O)NCCCNCCCNC(=O)c2ccc(NC(=O)CCCCCCC(=O)NO)cc2)cc1
60.2
